What area under the dose-response curve was measured for each of the following?
- System: SB.msgc-1
- assay-explanation: area under the dose-response curve of % viability (trapezoidal, 11 doses) (% viability x log10 concentration); higher = less cytotoxic
- condition-parameters: SB.msgc-1 (sporadic gastric cancer)

Example entries and their recorded answers appear below.
compound	result
Nc1ccc([S+](=O)([O-])Nc2ccccn2)cc1 [Sulfapyridine] (top concentration 46.0829 µM)	517
CC(=O)N[C@@H]1[C@@H](NC(N)=N)\C=C(/O[C@H]1[C@H](O)[C@H](O)CO)C(O)=O [Zanamivir] (top concentration 46.0829 µM)	573

# next compound below
Give a short answer stating reported area under the dose-response curve for COc1cc(O)c2c(c1)C1OC1C[C@H](O)[C@H](O)C(=O)/C=C\C[C@H](C)OC2=O (stereo partly drawn) [Hypothemycin] (top concentration 46.0829 µM) .
494

---

- Test system: SB.msgc-1
- assay-explanation: area under the dose-response curve of % viability (trapezoidal, 11 doses) (% viability x log10 concentration); higher = less cytotoxic
- condition-parameters: SB.msgc-1 (sporadic gastric cancer)
property-name: area under the dose-response curve
Numbers only.

compound	system-name	area under the dose-response curve
Nc1cccc([S+](=O)([O-])N2CCCN([S+](=O)([O-])c3ccc4c(c3)OCCO4)CC2)c1 (top concentration 46.0829 µM)	SB.msgc-1	481

List reported area under the dose-response curve for each of these compounds:
1. CCCN[S+](=O)([O-])Nc1ncnc(OCCOc2ncc(Br)cn2)c1-c1ccc(Br)cc1 [Macitentan] (top concentration 46.0829 µM)
2. c1ccc2c(-c3cnn4cc(-c5ccc(N6CCNCC6)cc5)cnc34)ccnc2c1 (top concentration 46.0829 µM)
3. CCOC\1=C(/C(=O)NC2=CC=C(OC3=C(Cl)C(=NC=C3)N)C(=C2)F)C(=O)N(\C=C1)C4=CC=C(F)C=C4 (top concentration 46.0829 µM)

1: 594; 2: 410; 3: 512

List reported area under the dose-response curve for each of these compounds:
1. O=C1\C=C/C=C2/[C@H]3CNC[C@H](C3)CN12 [Cytisine] (top concentration 46.0829 µM)
2. OC[C@H]1O[C@H](C[C@@H]1O)N2/C=C(C(=O)NC2=O)/C(F)(F)F [Trifluridine] (top concentration 46.0829 µM)
3. Cc1cc(SCc2sc(-c3ccc(C(F)(F)F)cc3)nc2C)ccc1OCC(=O)O (top concentration 46.0829 µM)

[454, 513, 271]

---

- Tested on: SB.mhdgc-1
- assay-explanation: area under the dose-response curve of % viability (trapezoidal, 11 doses) (% viability x log10 concentration); higher = less cytotoxic
- condition-parameters: SB.mhdgc-1 (hereditary c.1380delA CDH1 gastric cancer)
Structures can show the parent of a compound that is named as a salt.
What area under the dose-response curve was measured for each of the following?
Give bare numbers.

compound	area under the dose-response curve
CC[C@H]1CN2CCc3cc(OC)c(OC)cc3[C@@H]2C[C@@H]1C[C@H]1NCCc2cc(OC)c(OC)cc21 [Emetine] (top concentration 46.0829 µM)	393

List reported area under the dose-response curve for each of these compounds:
1. O=C(/C=C/c1ccc(/C=C/C(=O)Nc2ccc(C3=NCCN3)cc2)cc1)Nc1ccc(C2=NCCN2)cc1 [GW 4869] (top concentration 46.0829 µM)
2. COc1ccc(C(CN(C)C)C2(O)CCCCC2)cc1 (stereo not drawn) [Venlafaxine hydrochloride] (top concentration 46.0829 µM)

536
519
